biological target: human glucagon receptor (human, UniProt P47871 26-477); assay: cell-based or functional assay
Sequence (P47871 26-477): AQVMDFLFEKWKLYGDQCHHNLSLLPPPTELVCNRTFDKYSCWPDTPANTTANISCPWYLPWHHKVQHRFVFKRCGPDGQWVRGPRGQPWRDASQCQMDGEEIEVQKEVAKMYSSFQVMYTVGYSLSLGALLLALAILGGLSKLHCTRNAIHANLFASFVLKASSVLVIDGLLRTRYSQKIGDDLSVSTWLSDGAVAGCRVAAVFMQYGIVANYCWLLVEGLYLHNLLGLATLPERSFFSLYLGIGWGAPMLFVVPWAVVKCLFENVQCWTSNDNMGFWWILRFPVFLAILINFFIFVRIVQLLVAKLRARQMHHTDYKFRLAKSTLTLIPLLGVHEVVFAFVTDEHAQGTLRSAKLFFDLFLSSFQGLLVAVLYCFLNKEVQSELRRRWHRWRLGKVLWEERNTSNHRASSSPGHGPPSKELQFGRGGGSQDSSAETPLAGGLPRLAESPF
Reported cAMP EC50, in the presence of 0.1% casein values are given for each entry in this list.
Just the number please, in nM, no unit attached.

For orientation, consider the following solved cases.
[
  {
    "Binder": "YXQGTXTSDYSILLDKKAQXAFIEYLLEGGPSSGAPPPS (Aib at 2; αMeF(2F) at 6; K17 conjugated at the epsilon-amino group with (2-[2-(2-amino-ethoxy)-ethoxy]-acetyl)-(γGlu)-CO-(CH2)18-CO2H; Aib at 20; C-terminal amide, Synthetic acylated peptide) [Example 4]",
    "Test value": 0.0296
  },
  {
    "Binder": "YXHGTXTSDYSILLDKKAQXAFIEYLLEGGPSSGAPPPS (Aib at 2; αMeF(2F) at 6; K17 conjugated at the epsilon-amino group with (2-[2-(2-amino-ethoxy)-ethoxy]-acetyl)2-(γGlu)-CO-(CH2)18-CO2H; Aib at 20; C-terminal amide, Synthetic acylated peptide) [Example 3]",
    "Test value": 0.0301
  },
  {
    "Binder": "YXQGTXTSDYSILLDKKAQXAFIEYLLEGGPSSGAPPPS (Aib at 2; αMeF at 6; K17 conjugated at the epsilon-amino group with (2-[2-(2-amino-ethoxy)-ethoxy]-acetyl)2-(γGlu)-CO-(CH2)18-CO2H; Aib at 20; C-terminal amide, Synthetic acylated peptide) [Example 1]",
    "Test value": 0.158
  }
]

Please look at the following binder next.
Item YXQGTXTSDYSIXLDKKAQXAFIEYLLEGGPSSGAPPPS (Aib at 2; αMeF at 6; αMeL at 13; K17 conjugated at the epsilon-amino group with (2-[2-(2-amino-ethoxy)-ethoxy]-acetyl)2-(γGlu)-CO-(CH2)18-CO2H; Aib at 20; C-terminal amide, Synthetic acylated peptide) [Example 2] has what recorded cAMP EC50, in the presence of 0.1% casein?
0.096
